# target-desc: Mitogen-activated protein kinase kinase kinase 5 (Homo sapiens, UniProt Q99683)
# Sequence (Q99683 whole entry): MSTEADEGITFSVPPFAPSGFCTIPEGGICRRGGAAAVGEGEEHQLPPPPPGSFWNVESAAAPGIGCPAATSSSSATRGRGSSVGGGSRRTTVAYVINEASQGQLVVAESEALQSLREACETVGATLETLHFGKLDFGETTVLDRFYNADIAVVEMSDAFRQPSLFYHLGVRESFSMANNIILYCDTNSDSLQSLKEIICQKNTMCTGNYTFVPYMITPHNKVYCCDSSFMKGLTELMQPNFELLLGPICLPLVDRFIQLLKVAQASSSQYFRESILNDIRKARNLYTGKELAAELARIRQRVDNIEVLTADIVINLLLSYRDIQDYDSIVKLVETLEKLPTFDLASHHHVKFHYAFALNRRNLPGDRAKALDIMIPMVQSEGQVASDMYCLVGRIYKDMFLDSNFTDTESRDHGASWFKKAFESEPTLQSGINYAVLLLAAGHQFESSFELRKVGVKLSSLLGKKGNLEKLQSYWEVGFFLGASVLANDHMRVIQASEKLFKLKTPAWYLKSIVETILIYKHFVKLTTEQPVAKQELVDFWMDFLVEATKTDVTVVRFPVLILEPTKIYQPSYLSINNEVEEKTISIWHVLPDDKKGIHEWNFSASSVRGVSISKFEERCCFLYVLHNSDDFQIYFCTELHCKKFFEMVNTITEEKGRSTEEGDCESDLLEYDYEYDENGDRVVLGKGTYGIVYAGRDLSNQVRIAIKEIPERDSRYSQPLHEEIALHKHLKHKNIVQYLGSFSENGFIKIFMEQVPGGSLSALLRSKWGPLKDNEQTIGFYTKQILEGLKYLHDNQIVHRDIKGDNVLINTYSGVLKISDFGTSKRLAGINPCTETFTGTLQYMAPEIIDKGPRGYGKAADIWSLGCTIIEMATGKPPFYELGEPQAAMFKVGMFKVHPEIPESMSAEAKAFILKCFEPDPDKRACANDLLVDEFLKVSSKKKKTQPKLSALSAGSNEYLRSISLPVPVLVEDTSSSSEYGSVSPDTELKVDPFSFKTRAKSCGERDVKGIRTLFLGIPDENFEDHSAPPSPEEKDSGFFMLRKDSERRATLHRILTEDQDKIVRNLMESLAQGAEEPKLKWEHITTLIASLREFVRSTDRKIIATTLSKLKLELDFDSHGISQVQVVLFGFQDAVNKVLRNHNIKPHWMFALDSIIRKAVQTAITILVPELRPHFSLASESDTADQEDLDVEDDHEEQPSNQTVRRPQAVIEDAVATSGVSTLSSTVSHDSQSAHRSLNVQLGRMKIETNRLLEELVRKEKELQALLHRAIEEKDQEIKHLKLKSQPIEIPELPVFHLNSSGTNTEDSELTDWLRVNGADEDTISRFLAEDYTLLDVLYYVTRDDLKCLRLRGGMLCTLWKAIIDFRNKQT
# protocol-details: ASK1 Kinase Assay: The ASK1 enzymatic assay was run following Promega ASK1 Kinase Enzyme System (Cat #V3881). The kit provides the protocol, enzymes and all reagents necessary to run an assay. Firstly, the compounds, enzyme, substrate and ATP were diluted in provided assay buffer. The final concentration of the enzyme was 50 nM, substrate (Myelin basic protein) 1 μg/ml and ATP 10 μM. The compound and the enzyme were pre-incubated in a 384 well white solid bottom plate (Greiner, Cat#784075) for 10 minutes. After incubation, the substrate and ATP were added and incubated for further 60 minutes. After 60 minutes, ADP-Glo™ was added and plate was incubated for another 40 minutes. After 40 minutes, Kinase Detection Reagent was added and the plate was incubated for 45 minutes. After 45 minutes, plate was read on Perkin Elmer EnVision using luminescence read (0.5 seconds/well).
pIC50: −log10 of the molar value.
observation-type: pIC50

If you can, please state the reported pIC50 value of O=C(NC1CC1)c1ccc2c(c1)CN(c1cccc(-c3nncn3C3CC3)n1)C2=O .
> 6.70
